- TEST_DESCRIPTION: The drug is tested on Clostridium sp. strain: fecal isolate for biotransformation. The drug concentrations were measured before and after a 12-h incubation by liquid-chromatography-coupled mass spectrometry (LC–MS)
- COND: 2 µM
OUTCOME_MEASURE: Bacterial Biotransformation

Some solved cases for reference:
MOLECULE	VALUE
CN1CCN(C2=Nc3cc(Cl)ccc3Nc3ccccc32)CC1 [CLOZAPINE]	Compound NOT metabolized
CNNCc1ccc(C(=O)NC(C)C)cc1 [PROCARBAZINE]	Compound NOT metabolized
COc1ccc2c3c1O[C@H]1C[C@@H](O)C=C[C@@]31CCN(C)C2 [GALANTAMINE]	Compound NOT metabolized
CSc1ccc2c(c1)C(N1CCN(C)CC1)Cc1ccccc1S2.O=C(O)/C=C\C(=O)O (centres undefined)	Compound NOT metabolized
C[C@@H]1CC[C@H]2[C@@H](C)C(=O)O[C@@H]3O[C@@]4(C)CC[C@@H]1[C@]32OO4 [ARTEMISININ]	Compound metabolized

Record Bacterial Biotransformation for all entries; do not skip any.
1. CC(=O)SCC(Cc1ccccc1)C(=O)NCC(=O)OCc1ccccc1 (centres undefined) [RACECADOTRIL]
2. CC(C)(C)NC[C@H](O)COc1ccccc1C1CCCC1.CC(C)(C)NC[C@H](O)COc1ccccc1C1CCCC1.O=S(=O)(O)O [PENBUTOLOL SULFATE]
3. CC(C)(C)NCC(O)c1cc(Cl)c(N)c(Cl)c1 (centres undefined) [CLENBUTEROL]
4. O=c1[nH]c2ccccc2n1CCCN1CCC(n2c(=O)[nH]c3cc(Cl)ccc32)CC1 [DOMPERIDONE]
5. NC(CO)(CO)CO.O=C(c1ccccc1)c1ccc2n1CCC2C(=O)O (centres undefined) [KETOROLAC TROMETHAMINE]
6. CC(C)(C)NCC(O)COc1cccc2c1CC(O)C(O)C2 (centres undefined) [NADOLOL]
7. CN(C)C(=O)C(CCN1CCC(O)(c2ccc(Cl)cc2)CC1)(c1ccccc1)c1ccccc1 [LOPERAMIDE]
8. Nc1nc(N)nc(-c2cc(Cl)ccc2Cl)n1.O=C(O)/C=C\C(=O)O [IRSOGLADINE MALEATE]

// result
1: Compound metabolized; 2: Compound metabolized; 3: Compound NOT metabolized; 4: Compound NOT metabolized; 5: Compound metabolized; 6: Compound NOT metabolized; 7: Compound metabolized; 8: Compound NOT metabolized

Record Bacterial Biotransformation for all entries; do not skip any.
1. CC(C)NCC(O)COc1ccc(CC(N)=O)cc1 (centres undefined) [ATENOLOL]
2. COc1ccccc1OCC(O)CN1CCN(CC(=O)Nc2c(C)cccc2C)CC1 (centres undefined) [RANOLAZINE]

// result
Compound NOT metabolized
Compound NOT metabolized

---

- TEST_DESCRIPTION: The drug is tested on Bacteroides fragilis strain: HMW610 for biotransformation. The drug concentrations were measured before and after a 12-h incubation by liquid-chromatography-coupled mass spectrometry (LC–MS)
- COND: 2 µM
Non-standard residues stand in square brackets, D forms with d. Residues, ends and D or L forms follow the SMILES beside them. pGlu = O=C1CC[C@@H](C(=O)O)N1; Thz = O=C(O)[C@@H]1CSCN1
OUTCOME_MEASURE: Bacterial Biotransformation

Some solved cases for reference:
COMPOUND	Bacterial Biotransformation
CC(C)[C@H]1CC[C@H](C(=O)N[C@H](Cc2ccccc2)C(=O)O)CC1 [NATEGLINIDE]	Compound metabolized
CCOc1ccc(NC(C)=O)cc1	Compound NOT metabolized
COc1ccccc1N1CCN(CC(O)COc2cccc3ccccc23)CC1 (stereo not given)	Compound metabolized
CN(C)C(=O)Oc1cc(OC(=O)N(C)C)cc(C(O)CNC(C)(C)C)c1 (stereo not given)	Compound NOT metabolized

Record Bacterial Biotransformation for all entries; do not skip any.
1. Cc1cc2c(cc1S(N)(=O)=O)S(=O)(=O)CCC2
2. O=C(Nc1ccccc1)OCC(CN1CCCCC1)OC(=O)Nc1ccccc1 (stereo not given)
3. CCN(CC)CCNC(C(=O)OCCC(C)C)c1ccccc1.Cl.Cl (stereo not given)
4. CN(C/C=C/C#CC(C)(C)C)Cc1cccc2ccccc12
5. O=C1CC[C@@H](C(=O)N2CSC[C@H]2C(=O)O)N1 [PIDOTIMOD] ([pGlu]-[Thz]-OH)
6. O=C(NC(Cc1cc(=O)[nH]c2ccccc12)C(=O)O)c1ccc(Cl)cc1 (stereo not given) [REBAMIPIDE]

// result
1. Compound NOT metabolized
2. Compound NOT metabolized
3. Compound NOT metabolized
4. Compound NOT metabolized
5. Compound metabolized
6. Compound metabolized

---

- TEST_DESCRIPTION: The drug is tested on Escherichia coli strain: BW25113 for biotransformation. The drug concentrations were measured before and after a 12-h incubation by liquid-chromatography-coupled mass spectrometry (LC–MS)
- COND: 2 µM
OUTCOME_MEASURE: Bacterial Biotransformation

Some solved cases for reference:
MOLECULE	Bacterial Biotransformation
C[N+]12CCC(CC1)C(OC(=O)C(O)(c1ccccc1)c1ccccc1)C2.[Br-] (configuration not stated) [CLIDINIUM BROMIDE]	Compound NOT metabolized
CC(=O)O[C@]1(C(C)=O)CC[C@H]2[C@@H]3C=C(Cl)C4=CC(=O)[C@@H]5C[C@@H]5[C@]4(C)[C@H]3CC[C@@]21C [CYPROTERONE ACETATE]	Compound metabolized
CC[C@@H](CO)NC(=O)[C@@H]1C=C2c3cccc4c3c(cn4C)C[C@H]2N(C)C1.O=C(O)/C=C\C(=O)O [METHYSERGIDE MALEATE]	Compound metabolized
Nc1nc(NC2CC2)c2ncn([C@H]3C=C[C@@H](CO)C3)c2n1.Nc1nc(NC2CC2)c2ncn([C@H]3C=C[C@@H](CO)C3)c2n1.O=S(=O)(O)O [ABACAVIR SULFATE]	Compound NOT metabolized
CO[C@]12C[C@@H](COC(=O)c3cncc(Br)c3)CN(C)[C@@H]1Cc1cn(C)c3cccc2c13	Compound NOT metabolized

Record Bacterial Biotransformation for all entries; do not skip any.
1. C[C@@H](CO)NC(=O)[C@@H]1C=C2c3cccc4[nH]cc(c34)C[C@H]2N(C)C1.O=C(O)/C=C\C(=O)O [ERGONOVINE MALEATE]
2. CCN1CCCC1CNC(=O)c1cc(S(N)(=O)=O)ccc1OC (configuration not stated) [SULPIRIDE]

// result
["Compound NOT metabolized", "Compound NOT metabolized"]

---

- TEST_DESCRIPTION: The drug is tested on Bacteroides caccae strain: ATCC43185 for biotransformation. The drug concentrations were measured before and after a 12-h incubation by liquid-chromatography-coupled mass spectrometry (LC–MS)
- COND: 2 µM
OUTCOME_MEASURE: Bacterial Biotransformation

COMPOUND	VALUE
CC(O)(CS(=O)(=O)c1ccc(F)cc1)C(=O)Nc1ccc(C#N)c(C(F)(F)F)c1 (configuration not stated) [BICALUTAMIDE]	Compound NOT metabolized
CC[C@@H](CO)NC(=O)[C@@H]1C=C2c3cccc4c3c(cn4C)C[C@H]2N(C)C1.O=C(O)/C=C\C(=O)O [METHYSERGIDE MALEATE]	Compound metabolized
CN(C)CCOC(C)(c1ccccc1)c1ccccn1.O=C(O)CCC(=O)O (configuration not stated) [DOXYLAMINE SUCCINATE]	Compound NOT metabolized
CC(=O)OCC(=O)[C@@]1(OC(C)=O)[C@@H](C)C[C@H]2[C@@H]3C[C@H](F)C4=CC(=O)C=C[C@]4(C)[C@@]3(F)[C@@H](O)C[C@@]21C [DIFLORASONE DIACETATE]	Compound metabolized
C[C@@H]1CC[C@H]2[C@@H](C)C(=O)O[C@@H]3O[C@@]4(C)CC[C@@H]1[C@]32OO4 [ARTEMISININ]	Compound metabolized

Record Bacterial Biotransformation for all entries; do not skip any.
1. OC(CCN1CCCCC1)(c1ccccc1)C1CCCCC1 (configuration not stated) [TRIHEXYPHENIDYL]
2. C[C@@H]1C[C@H]2[C@@H]3CCC4=CC(=O)C=C[C@]4(C)[C@@]3(F)[C@@H](O)C[C@]2(C)[C@@]1(O)C(=O)CO [DEXAMETHASONE]

// result
["Compound NOT metabolized", "Compound NOT metabolized"]

---

- COND: parabacteroides distasonis, 12 h, 2 µM
- Description: The drug is tested on Parabacteroides distasonis strain: ATCC8503 for biotransformation. The drug concentrations were measured before and after a 12-h incubation by liquid-chromatography-coupled mass spectrometry (LC–MS)
OUTCOME_MEASURE: Bacterial Biotransformation

Some solved cases for reference:
COMPOUND	OUTCOME_MEASURE	VALUE
O=P1(N(CCCl)CCCl)NCCCO1 (centres undefined) [CYCLOPHOSPHAMIDE ANHYDROUS]	Bacterial Biotransformation	Compound NOT metabolized
CCN(CC)CC#CCOC(=O)C(O)(c1ccccc1)C1CCCCC1.Cl (centres undefined) [OXYBUTYNIN CHLORIDE]	Bacterial Biotransformation	Compound NOT metabolized
O=C(O)CCc1nc(-c2ccccc2)c(-c2ccccc2)o1 [OXAPROZIN]	Bacterial Biotransformation	Compound metabolized
CC(C)(C)NC(=O)[C@H]1CC[C@H]2[C@@H]3CC[C@H]4NC(=O)C=C[C@]4(C)[C@H]3CC[C@]12C [FINASTERIDE]	Bacterial Biotransformation	Compound NOT metabolized
COc1c(C)c2c(c(O)c1C/C=C(\C)CCC(=O)OCCN1CCOCC1)C(=O)OC2 [MYCOPHENOLATE MOFETIL]	Bacterial Biotransformation	Compound metabolized

Record Bacterial Biotransformation for all entries; do not skip any.
1. CCN(CC)CCOC(=O)C1(C2CCCCC2)CCCCC1 [DICYCLOMINE]
2. CNS(=O)(=O)Cc1ccc2[nH]cc(CCN(C)C)c2c1.O=C(O)CCC(=O)O [SUMATRIPTAN SUCCINATE]
3. CC(C)N(CCC(C(N)=O)(c1ccccc1)c1ccccn1)C(C)C.O=P(O)(O)O (centres undefined) [DISOPYRAMIDE PHOSPHATE]

// result
Compound metabolized
Compound NOT metabolized
Compound NOT metabolized

Record Bacterial Biotransformation for all entries; do not skip any.
1. Cc1cc2c(s1)Nc1ccccc1N=C2N1CCN(C)CC1 [OLANZAPINE]
2. O=C(O)c1cc(/N=N/c2ccc(S(=O)(=O)Nc3ccccn3)cc2)ccc1O [SULFASALAZINE]
3. COC(=O)Nc1nc2ccc(C(=O)c3ccccc3)cc2[nH]1 [MEBENDAZOLE]
4. CN1CCOC(c2ccccc2)c2ccccc2C1 (centres undefined) [NEFOPAM]

// result
1. Compound NOT metabolized
2. Compound metabolized
3. Compound metabolized
4. Compound NOT metabolized

Record Bacterial Biotransformation for all entries; do not skip any.
1. COc1ccc2[nH]c([S+]([O-])Cc3ncc(C)c(OC)c3C)nc2n1 (centres undefined) [TENATOPRAZOLE]
2. COc1cc2nc(N(C)CCCNC(=O)C3CCCO3)nc(N)c2cc1OC (centres undefined) [ALFUZOSIN]

// result
["Compound metabolized", "Compound NOT metabolized"]
